Experiment: NCI Yeast Anticancer Drug Screen. Data for the mlh1 rad18 strain (AID 175)
Details: S. cerevisiae mlh1 rad18 strain growth inhibition; at 50.0 µM; active compounds read high
About 79,000 compounds went through this panel and 15% of them were active in at least one assay; those are over-represented in the sample as a whole.
Attribute measured: growth inhibition (%)
# number only, unit % dropped from output

Some solved cases for reference:
Compound	Reading unit	growth inhibition
O=C(Nc1cc2cc([N+](=O)[O-])ccc2oc1=O)c1cccs1	%	-15.6
CC1=CC2CC(C)C1(C)CCc1ccoc12 (stereo unspecified)	%	4.7
CCCCCCC(=O)NC(O)C(Cl)(Cl)C(C)Cl (stereo unspecified)	%	4.1
COC(=O)C1(C)CCCC2(C)C3CCC(C(C)C)CC3CCC12 (stereo unspecified)	%	8.65

Req: Bench note: what growth inhibition did O=C(O)COc1cccc([N+](=O)[O-])c1 show?
Resp: -17.4

Req: Param item = CCOC(=O)C1=C(C(C)=O)C(c2ccccc2[N+](=O)[O-])C(C(C)=O)=C(C(=O)OCC)N1 ; retrieve measured growth inhibition.
Resp: 9.25
